Items are presented alongside their recorded IC50.
- study_target: H2 receptor (Homo sapiens, UniProt P25021)
- Sequence (P25021 whole entry): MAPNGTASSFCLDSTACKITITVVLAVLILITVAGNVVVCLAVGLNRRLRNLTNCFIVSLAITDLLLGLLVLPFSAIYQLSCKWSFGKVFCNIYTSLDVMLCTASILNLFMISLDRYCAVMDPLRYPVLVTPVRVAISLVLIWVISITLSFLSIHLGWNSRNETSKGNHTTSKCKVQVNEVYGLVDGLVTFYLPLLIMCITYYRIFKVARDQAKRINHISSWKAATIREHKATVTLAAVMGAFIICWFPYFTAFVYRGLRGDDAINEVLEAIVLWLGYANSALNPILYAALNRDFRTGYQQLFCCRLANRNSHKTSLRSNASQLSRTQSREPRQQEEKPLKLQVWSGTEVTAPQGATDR
- assay_comment: IC50 antagonist activity screen (PathHunter β-Arrestin GPCR assay)
- Assay type: cell-based
- study_conditions: value at which the cannabinoid reached the reference compound's (tiotidine) 50% effective concentration; H2 receptor antagonist mode; read-out: RC50 (the source's name)
Provide the reading as a plain figure in µM.

What IC50 value was documented for this compound, C=C(C)[C@@H]1CCC(C)=C[C@H]1c1c(O)cc(CCCCCCC)cc1O ?
0.38

Also CCCCCCCc1cc(O)c(C/C=C(\C)CCC=C(C)C)c(O)c1 ?
3.39

Now consider the entry below.
What IC50 value was documented for this compound, C=C(C)[C@@H]1CCC(C)=C[C@H]1c1c(O)cc(CCCCC)cc1O ?
0.83

---

Items are presented alongside their recorded pIC50.
- study_target: H2 receptor (Homo sapiens, UniProt P25021)
- assay_comment: IC50 antagonist activity screen (PathHunter β-Arrestin GPCR assay)
- Format: cell-based
- study_conditions: value at which the cannabinoid reached the reference compound's (tiotidine) 50% effective concentration; H2 receptor antagonist mode; read-out: RC50 (the source's name)
- Experimental: It has additionally been discovered that the alkyl side chain length of cannabinoid compounds can influence the effect the cannabinoid compounds have on the GPCR receptors. […] A single assay was run. […] Microplates were read following signal generation with a PerkinElmer Envision™ (PerkinElmer Inc., Waltham, Mass.) for chemiluminescent signal detection. Reactivity was analyzed using the CBIS data analysis suite (ChemInnovation, CA) where RLU refers to the raw measured values. […]
pIC50: −log10 of the molar value.

Illustrative cases are given below, each with its answer.
What pIC50 value was documented for this compound, CCCCCCCCCc1cc(O)c(C/C=C(\C)CCC=C(C)C)c(O)c1C(=O)O ?
< 5.00

Also C=C(C)[C@@H]1CCC(C)=C[C@H]1c1c(O)cc(C)cc1O ?
< 5.00

Next:
What pIC50 value was documented for this compound, CCCCCCc1cc(O)c(C/C=C(\C)CCC=C(C)C)c(O)c1C(=O)O ?
< 5.00
